Provenance of the data: patent US20130203661A1

Listing: IC50 of selected binders
assayedTarget: T1, chimeric Leptin (Hu)-EPO (Mu) receptor presented by the 32D OBECA cell line (human; murine, UniProt P48357 22-839; P14753 250-507)
T1 construct: Chimera of human leptin receptor and murine EPO receptor on 32D OBECA / 32D-Keptin cells; 273(29): 18365-18373; also called chimeric Hu-Leptin/Mu-EPO receptor
T1 sequence (looked up): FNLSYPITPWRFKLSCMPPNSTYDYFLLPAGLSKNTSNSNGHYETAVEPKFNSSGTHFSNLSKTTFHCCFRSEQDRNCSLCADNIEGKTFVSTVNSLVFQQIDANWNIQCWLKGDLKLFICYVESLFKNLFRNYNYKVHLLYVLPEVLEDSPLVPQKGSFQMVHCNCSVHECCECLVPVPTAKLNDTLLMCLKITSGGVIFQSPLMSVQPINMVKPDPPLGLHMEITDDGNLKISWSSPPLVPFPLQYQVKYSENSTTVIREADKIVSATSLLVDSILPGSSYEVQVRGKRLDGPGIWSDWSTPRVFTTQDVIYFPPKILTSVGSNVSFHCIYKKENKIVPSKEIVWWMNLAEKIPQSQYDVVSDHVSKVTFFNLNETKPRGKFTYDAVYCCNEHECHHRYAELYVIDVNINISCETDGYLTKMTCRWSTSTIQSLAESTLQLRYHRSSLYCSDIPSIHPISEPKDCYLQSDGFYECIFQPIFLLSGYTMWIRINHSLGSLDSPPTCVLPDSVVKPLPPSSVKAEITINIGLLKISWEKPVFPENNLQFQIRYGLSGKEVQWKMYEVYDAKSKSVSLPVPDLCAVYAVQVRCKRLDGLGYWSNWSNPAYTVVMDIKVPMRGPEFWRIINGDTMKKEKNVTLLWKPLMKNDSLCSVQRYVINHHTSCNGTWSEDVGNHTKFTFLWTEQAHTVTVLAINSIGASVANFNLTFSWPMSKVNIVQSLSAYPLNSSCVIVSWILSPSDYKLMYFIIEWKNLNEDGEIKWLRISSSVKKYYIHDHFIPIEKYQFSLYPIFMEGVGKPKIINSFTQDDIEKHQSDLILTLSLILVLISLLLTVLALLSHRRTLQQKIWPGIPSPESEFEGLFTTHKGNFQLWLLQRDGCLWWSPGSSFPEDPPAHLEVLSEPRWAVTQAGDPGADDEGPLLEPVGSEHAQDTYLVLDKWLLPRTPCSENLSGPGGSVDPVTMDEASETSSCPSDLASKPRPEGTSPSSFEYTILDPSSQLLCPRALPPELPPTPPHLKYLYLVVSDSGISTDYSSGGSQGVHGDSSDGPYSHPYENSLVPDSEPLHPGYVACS
measurementNotes: Obeca cell binding: displacement of 125I-murine leptin from 32D OBECA cell membranes
measuredProperty: IC50 (pM)

[
  {
    "binder": "Seal leptin with N-terminal methionine, and with amino acids 30 and 71-92 replaced with amino acids 32 and 73-94 (helix 3) of metreleptin (ligand, Seal-human chimeric leptin; also called Compound 48; Cmpd 48) MPIQRVQDDTKTLIKTIITRINDISPPQGVSSRPRVAGLDFIPRVQSVRTLSGMDQILATYQQILTSLQSRNVIQISNDLENLRDLLHVLAFSKSCPVPRARGSDTIKGLGNVLRASVHSTEVVALSRLKAALQDMLRQLDRNPGC",
    "experimentalResult": 36
  },
  {
    "binder": "Seal leptin with N-terminal methionine, with amino acids 71-92 replaced with amino acids 73-94 (helix 3) of metreleptin, and with amino acids 93-119 replaced … (ligand, Seal-human chimeric leptin; also called Compound 50) MPIQRVQDDTKTLIKTIITRINDISPPQGVCSRPRVAGLDFIPRVQSVRTLSGMDQILATYQQILTSLQSRNVIQISNDLENLRDLLHVLAFSKSCHLPWASGLETLDSLGGVLEASGYSTEVVALSRLKAALQDMLRQLDRNPGC",
    "experimentalResult": 214
  },
  {
    "binder": "Seal leptin with N-terminal methionine, and with amino acids 71-92 replaced with amino acids 73-94 (helix 3) of metreleptin (ligand, Seal-human chimeric leptin; also called Compound 41; Cmpd 41) MPIQRVQDDTKTLIKTIITRINDISPPQGVCSRPRVAGLDFIPRVQSVRTLSGMDQILATYQQILTSLQSRNVIQISNDLENLRDLLHVLAFSKSCPVPRARGSDTIKGLGNVLRASVHSTEVVALSRLKAALQDMLRQLDRNPGC",
    "experimentalResult": 555
  },
  {
    "binder": "Seal leptin with N-terminal methionine, and with amino acids 50-65 replaced with amino acids 52-67 (helix 2) of metreleptin (ligand, Seal-human chimeric leptin; also called Compound 43) MPIQRVQDDTKTLIKTIITRINDISPPQGVCSRPRVAGLDFIPRVQSVRTLSKMDQTLAVYQQILTSLQSRSVVQIANDLANLRALLRLLASAKSCPVPRARGSDTIKGLGNVLRASVHSTEVVALSRLKAALQDMLRQLDRNPGC",
    "experimentalResult": 3080
  },
  {
    "binder": "Seal leptin with N-terminal methionine, with amino acids 23-49 replaced with amino acids 25-51 (AB loop) of metreleptin, and with amino acids 93-119 replaced … (ligand, Seal-human chimeric leptin; also called Compound 47) MPIQRVQDDTKTLIKTIITRINDISHTQSVSSKQKVTGLDFIPGLHPILTLSGMDQILATYQQILTSLQSRSVVQIANDLANLRALLRLLASAKSCHLPWASGLETLDSLGGVLEASGYSTEVVALSRLKAALQDMLRQLDRNPGC",
    "experimentalResult": 788
  }
]
